Attribution: patent US7776883B2

endpointName: melting point

[
  {
    "entrySmiles": "O=C(O)C(=O)CC(=O)c1cn(Cc2ccccc2)c2ccccc2c1=O",
    "melting point": "141 to 142 °C"
  },
  {
    "entrySmiles": "CCOC(=O)C(=O)CC(=O)c1cn(Cc2ccc(F)cc2)c2ccc(F)cc2c1=O",
    "melting point": "152 to 153 °C"
  },
  {
    "entrySmiles": "CCOC(=O)C(=O)CC(=O)c1cn(Cc2ccc(F)cc2)c2c(F)cccc2c1=O",
    "melting point": "179 to 180 °C"
  }
]

Consider now this further compound.
Prompt: Annotate the compound O=C(O)C(=O)CC(=O)c1cn(Cc2ccc(Cl)cc2)c2ccccc2c1=O with its measured melting point.
Completion: 177 to 179 °C

---

The entries below come with measured melting point values attached.

Here are 4 compounds together with their reported answers.
[
  {
    "entrySmiles": "O=C(O)C(=O)CC(=O)c1cn(CCCCc2ccccc2)c2ccccc2c1=O",
    "melting point": "136 to 138 °C"
  },
  {
    "entrySmiles": "O=C(O)C(=O)CC(=O)c1cn(Cc2ccc(F)cc2)c2ccc(F)cc2c1=O",
    "melting point": "183 to 184 °C"
  },
  {
    "entrySmiles": "O=C(O)C(=O)CC(=O)c1cn(Cc2ccc(F)cc2)c2ccccc2c1=O",
    "melting point": "207 to 209 °C"
  },
  {
    "entrySmiles": "COc1cccc(Cn2cc(C(=O)CC(=O)C(=O)O)c(=O)c3ccccc32)c1",
    "melting point": "179 to 181 °C"
  }
]

Prompt: Indicate its recorded melting point; the compound in question is CCOC(=O)C(=O)CC(=O)c1cn(Cc2ccc(Cl)cc2)c2ccccc2c1=O
Completion: 174 to 176 °C

Prompt: Using the record for CCOC(=O)C(=O)CC(=O)c1cn(Cc2ccc(F)cc2)c2cc(Cl)c(Cl)cc2c1=O , state its measured melting point.
Completion: 144 to 145 °C

Prompt: Tell me its melting point given O=C(O)C(=O)CC(=O)c1cn(Cc2ccc(F)cc2)c2c(Cl)cccc2c1=O as the entry.
Completion: 175 to 177 °C

Prompt: Consider the compound O=C(O)C(=O)CC(=O)c1cn(Cc2ccc(F)cc2)c2c(F)cccc2c1=O and give its recorded melting point.
Completion: 180 to 181 °C

Prompt: Report melting point for O=C(O)CCc1cn(Cc2ccc(F)cc2)c2ccc(C(=O)CC(=O)C(=O)O)cc2c1=O
Completion: 184 to 187 °C

Prompt: State its melting point for this compound: CCOC(=O)C(=O)CC(=O)c1cn(Cc2ccc3ccccc3n2)c2ccccc2c1=O
Completion: 237 to 238 °C

Prompt: Indicate its recorded melting point; the compound in question is O=C(O)C(=O)CC(=O)c1cn(Cc2cccc(F)c2)c2ccccc2c1=O
Completion: 158 to 159 °C

Prompt: Dear colleague, please send me the reported melting point for CCOC(=O)C(=O)CC(=O)c1cn(Cc2cccc(OC)c2)c2ccccc2c1=O when you can.
Completion: 177 to 179 °C

---

compounds and their reported melting point

# example entries with known answers
[
  {
    "entrySmiles": "O=C(O)C(=O)CC(=O)c1c[nH]c2ccccc2c1=O",
    "melting point": "> 290 °C"
  },
  {
    "entrySmiles": "O=C(O)C(=O)CC(=O)c1cn(Cc2ccc([N+](=O)[O-])cc2)c2ccccc2c1=O",
    "melting point": "230 to 232 °C"
  }
]

From here, focus on the item given below.
Prompt: Give the measured melting point for CCOC(=O)C(=O)CC(=O)c1cn(CCCCc2ccccc2)c2ccccc2c1=O
Completion: 88 to 90 °C
